test system: IGROV1 ovarian; experiment: NCI-60 one-dose screen, 48 h (100 = growth as untreated, 0 = no growth, -100 = all killed); conditions: 10 µM unless noted
About 83,000 compounds went through this panel and 20% of them were active in at least one assay; those are over-represented in the sample as a whole.
parameter: growth (%)
Write down the numeric answer in % and omit the unit.

Note down growth recorded for "CN(C)c1ccc(-c2cc(-c3ccc(Nc4nc(Nc5ccc(Cl)cc5)nc(Nc5ccc(Cl)cc5)n4)cc3)no2)cc1"
22.4

Query growth for "O=C(CCCCCCSc1nc(-c2ccccc2)cc(-c2ccc(Cl)cc2)n1)NO"
-19.6

State, in one line, measured growth of O=c1cc(C2NNC(=S)N2)c2ccc3ccccc3c2o1 (configuration not stated)
76.8

Report growth, nothing else, for this compound: O=C(NC(CSSCC(NC(=O)c1ccccc1)C(=O)O)C(=O)O)c1ccccc1 (configuration not stated)
96.7

Give growth for "O=C1Nc2ccccc2/C1=C/c1cn(C(=O)c2c(Cl)cccc2Cl)c2ccccc12"
25.8

For "O=C(NCCCNc1cc(-c2cn(-c3ccccc3)nc2-c2cccc(O)c2)ccn1)c1ccccc1" , write its growth.
50.8

Please indicate growth recorded for Cc1nc2ccccc2n1CC1NC(=O)NC1=O (configuration not stated)
104

Give the measured growth for "O=C(Nc1ccccc1-c1nc2ccccc2c(=O)[nH]1)c1cc2ccccc2[nH]1"
69.2

Answer with the recorded growth for the compound listed here: "C=CCOC1=CC(=O)c2ccccc2C1=O"
85.5

State its growth: "O=C1C=C[C@]2(C[C@@H](c3cccc(C(F)(F)F)c3)O[C@@H](c3cccc(C(F)(F)F)c3)O2)O1"
22.3

Tell me growth reported for Cc1ccc(C2SCC(=O)N2Cc2ccccc2)cc1 (configuration not stated)
102

Give growth for the following compound: "C=CCn1c(C)nc2cc(Nc3nc(N4CCCC4)nc4ccccc34)ccc21"
95.4

Return growth (reported value) for this compound: "COC(=O)c1c2c(c(C)[n+]([O-])c1C)C(=O)C(NCc1ccc(F)cc1)=CC2=O"
17.6

Could you please provide reported growth for "O=C(Nc1ccc(Nc2ccncc2)cc1)c1ccc(C(=O)Nc2ccc(Nc3ccncc3)cc2)cc1" ? Thanks!
75.8

Quickly give me recorded growth for "O=C1/C(=C/c2ccc(F)cc2)C=C(c2ccccc2)N1CCc1ccccc1"
62.3

Identify measured growth associated with "COc1ccc(-c2ccc3c(c2)sc2nc(-c4ccc(F)cc4)cn23)cc1"
100

Fill in growth for record "COc1cc(/C=C2\C(=O)ON=C2C)cc(OC)c1OC"
101

Provide one value: measured growth of "CCc1c2c(nc3ccc(OC(=O)OCc4ccc(B5OC(C)(C)C(C)(C)O5)cc4)cc13)-c1cc3c(c(=O)n1C2)COC(=O)[C@]3(O)CC"
6.81

Please list growth recorded for the compound "CCOC(=O)c1c(-c2ccc(Cl)cc2)c(C#N)c(=O)n(-c2ccccc2CC)c1N"
99.8

Read off the recorded growth for "COCCN(C(=O)c1ccc(F)cc1F)c1c(N)n(Cc2ccccc2)c(=O)[nH]c1=O"
2.97

State, in one line, measured growth of CC(CN1CCCCC1)C(=O)c1ccccc1 (configuration not stated)
109

Quote growth reported for "CC(C)(C)c1ccc(/C=C/C(=O)Nc2ccc(O)cc2)cc1" please.
62.2

Read the entry "Cc1ccc2nc(NC(=O)CSc3nc(Nc4ccc([N+](=O)[O-])cc4)c(C#N)c(-c4ccccc4)n3)sc2c1" and write its reported growth.
76.1

Name the recorded growth of the compound listed here: "COc1cc(C(=O)c2cc(C)c3[nH]c4ccc(Cl)cc4c3c2C)cc(OC)c1OC"
9.24

Assign growth to the following record: "COc1ccc2[nH]c(O)c(/C=c3/cc4c(c(-c5ccc(F)c(OC)c5)n3)=Nc3ccccc3-4)c2c1"
84.6

Give the value of growth reported for the following: CC1(C)CC(=O)C2=C(C1)N(c1ccc(OC(F)(F)F)cc1)C(N)=C(C#N)C2c1ccc(Cl)cc1 (configuration not stated)
90.3

Look up and report measured growth for this entry: "Cc1cc(NCc2cc(Nc3ccnc4cc(Cl)ccc34)ccc2F)nc(N2CCSCC2)n1"
40.6

Report measured growth; entry is "COc1ccc(NC(=O)CSc2nc(C)c(C(C)=O)n2-c2ccc(Cl)cc2)cc1"
95.1

Please indicate growth recorded for "CCN(CCNc1ccc(C)c2sc3ccccc3c(=O)c12)CC(C)(C)O"
79.4

Read the entry "C#CCOc1nc(C)cc(C)c1C#N" and write its reported growth.
102

State its growth for this compound: CCCCCCCCCCCC(c1ccccc1)[N+](C)(C)C (configuration not stated)
-60.8

Output measured growth for this item: "CN1CCN(CC(=O)Nc2nc(-c3cccc(NS(=O)(=O)c4cccc5c(N(C)C)cccc45)c3)cs2)CC1"
86.6

Provide one value: measured growth of "COc1cccc(-c2nc3sccn3c2-c2ccnc(NCCNS(=O)(=O)c3ccc(C(F)(F)F)cc3)c2)c1"
45.2

Assign growth to the following record: COc1ccc(C2c3ccc4ccccc4c3Oc3nc(C)[nH]c(=O)c32)cc1 (configuration not stated)
95.8

Retrieve growth measured for "CCN(CC)c1ccc2nc3c4ccccc4c(=NC(=O)c4ccccc4-c4c5ccc(N(CC)CC)cc5[o+]c5cc(N(CC)CC)ccc45)cc-3oc2c1" and print it.
-66.6

Indicate its recorded growth; the compound in question is "Cc1nn(-c2ccccc2)c(Cl)c1/C=C(/NC(=O)c1ccccc1)c1nc2ccccc2[nH]1"
96.8

Note down growth recorded for Cc1ccc(NS(=O)(=O)c2ccc3c(c2)C(=O)CC(c2ccc(C(=O)C(C)C)cc2)N3)cc1C (configuration not stated)
66.8

Name the recorded growth of the compound listed here: "NC(=S)Nc1cccc(O)c1"
98

Report growth, nothing else, for this compound: CCCCOc1nc2ccccc2cc1C1CNC(=O)c2ccccc2N1 (configuration not stated)
38

Kindly indicate its recorded growth. Item: "COc1ccccc1N1C(=O)/C(=C/C2=Cc3ccccc3OC2)SC1=S"
97.2

Check the records and state growth for "O=C(Nc1cccc(Cl)c1)c1cc(N=Nc2ccc([N+](=O)[O-])cc2Cl)ccc1O"
22.9

Complete the entry with growth for CN1C(=O)N(C)C2C1NN=c1s/c(=C\c3ccccc3)c(=O)n12 (configuration not stated)
46.4
